# experimentalSystem: the molecule itself
# methodSummary: FRET donor lifetime on dilution of donor- and acceptor-labelled peptide; dissociation of the S2 peptide coiled-coil dimer (control)
Where no end group is shown, it is not given here.
Give pKd for every item shown.
One number for each entry, as −log10 of the molar value.

EMNERLEDEEMNAELTAK (also: in FRET: FITC on N-terminus of one monomer, terbium-DTPA-cytosine chelate on C-terminal Lys of the other, Deletion of glutamate 930 already in the entry; also called Edel930; ΔE930) [Human β-cardiac mutant myosin S2 peptide (E930del), 18 residues] : 5.95
EVTERAEDEEEINAELTAK (also: in FRET: FITC on N-terminus of one monomer, terbium-DTPA-cytosine chelate on C-terminal Lys of the other, also called skeletal muscle myosin S2^pep) [Human skeletal myosin S2 peptide (MYH2), 19 residues] : 6.47
EMEARLEEEEDRGQQLQAERK (also: in FRET: FITC on N-terminus of one monomer, terbium-DTPA-cytosine chelate on C-terminal Lys of the other, also called smooth muscle myosin S2^pep) [Human smooth myosin S2 peptide (MYH11), 21 residues] : 6.52
EMNKRLEDEEEMNAELTAK (also: in FRET: FITC on N-terminus of one monomer, terbium-DTPA-cytosine chelate on C-terminal Lys of the other, E924K already in the entry; also called Cardiac Myosin S2 Mutant, E924K) [Human β-cardiac mutant myosin S2 peptide (E924K), 19 residues] : 6.03

Consider the protein shown here: EMNERLEDEEEMNAELTAK (also: in FRET: FITC on N-terminus of one monomer, terbium-DTPA-cytosine chelate on C-terminal Lys of the other, Chemically synthesized; forms a coiled-coil dimer; also called human cardiac myosin S2 peptide; cardiac muscle myosin S2^pep) [Human β-cardiac myosin S2 peptide, wild-type (MYH7, 19 residues)] What is its recorded pKd?
6.52

Data origin: patent US12617818
